Reference source: patent US11149020B2

target: human p38α MAPK (Homo sapiens (Human))
Entries are grouped by IC50 into these classes: class A: < 200 nM; class B: ≥ 200 nM and < 400 nM; class C: ≥ 400 nM

Here are 3 compounds together with their reported answers.
> print(dat)
                                   compound  qualitative.label
1  CN(C)c1cnc(-c2cccc3ccccc23)c(-c2ccncc2)n1 [44 (MW-064)]            class C
2  c1ccc2c(-c3nnc(N4CCCCC4)cc3-c3ccncc3)cccc2c1 [12 (MW-124)]            class A
3  CN1CCN(c2cc(-c3ccncc3)c(-c3cccc4cc(F)ccc34)nn2)CC1 [54 (MW-197)]            class C

Prompt: For the record CNc1cc(-c2ccncc2)c(-c2cccc3ccccc23)nn1 [15 (MW-156)] , report the class its IC50 corresponds to.
Completion: class B

Prompt: Okay, and CN1CCN(c2cc(-c3ccncc3)c(-c3cc(F)cc4ccccc34)nn2)CC1 [53 (MW-059)] ?
Completion: class C

Prompt: Okay, and CN1CCC(c2cc(-c3ccncc3)c(-c3ccc4ccccc4c3)nn2)CC1 [36 (MW-164)] ?
Completion: class B

Prompt: Okay, and CN1CCN(c2cc(-c3ccncc3F)c(-c3cccc4ccccc34)nn2)CC1 [14 (MW-109)] ?
Completion: class A

Prompt: Okay, and CN1CCN(c2cc(-c3ccncc3)c(-c3cccc4ccccc34)nn2)CC1 [11 (MW-122)] ?
Completion: class A

Prompt: Okay, and Fc1cnccc1-c1cc(C2CC2)nnc1-c1ccc2ccccc2c1 [10 (MW-167)] ?
Completion: class B

Prompt: Okay, and c1ccc2cc(-c3nnc(NC4CC4)cc3-c3ccncc3)ccc2c1 [35 (MW-153)] ?
Completion: class A

###

What follows is a record of IC50 for human p38α MAPK (Homo sapiens (Human), UniProt Q16539).
Your answer should be a plain number; it is taken to be in nM.

> print(dat)
                                   molecule  recorded.metric  units.symbol  reported.result
1  c1ccc2c(-c3nnc(C4CC4)cc3-c3ccncc3)cccc2c1 [7 (MW-077)]             IC50            nM              419
2  CN(C)c1cc(-c2ccncc2)c(-c2ccc(F)c3ccccc23)nn1 [17 (MW-078)]             IC50            nM             1780
3  CN1CCN(c2cc(-c3ccncc3)c(-c3ccc4ccc(F)cc4c3)nn2)CC1 [50 (MW-017)]             IC50            nM              974

// below: IC50 requested for another molecule
Prompt: Bench note: what IC50 did CCCN(C)c1cc(-c2ccncc2)c(-c2cccc3ccccc23)nn1 [24 (MW-010)] show?
Completion: 188

###

target: CK-1δ (Homo sapiens (Human), UniProt P48730); test: Kinase assay, concentration dependent inhibition of CK-1δ
Sequence (P48730 whole entry): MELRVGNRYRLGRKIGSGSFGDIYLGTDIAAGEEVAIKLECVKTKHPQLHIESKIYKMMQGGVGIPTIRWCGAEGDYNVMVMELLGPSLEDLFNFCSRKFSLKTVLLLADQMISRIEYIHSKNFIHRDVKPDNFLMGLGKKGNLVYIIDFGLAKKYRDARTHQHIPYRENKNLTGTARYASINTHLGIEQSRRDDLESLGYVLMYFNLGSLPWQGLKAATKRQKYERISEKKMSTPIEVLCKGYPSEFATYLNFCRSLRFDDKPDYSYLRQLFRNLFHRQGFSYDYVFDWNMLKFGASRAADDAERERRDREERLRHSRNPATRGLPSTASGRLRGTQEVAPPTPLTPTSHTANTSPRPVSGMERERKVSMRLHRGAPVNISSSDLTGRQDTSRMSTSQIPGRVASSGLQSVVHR
recorded_metric: pIC50
// scale note: pIC50 = -log10(conc_M); give the bare number

Prompt: Bench note: what pIC50 did CN1CCC(c2cc(-c3ccncc3)c(-c3ccc4ccccc4c3)nn2)CC1 [36 (MW-164)] show?
Completion: 4.95

###

target: CK-1δ (Homo sapiens (Human), UniProt P48730); experiment: Kinase assay, concentration dependent inhibition of CK-1δ; settings: read-out: Ck1δ IC50
Property: pIC50; scope: individual molecules
// scale note: pIC50 = -log10(conc_M); give the bare number

> print(dat)
                                 smiles.str                     target.or.test.system  reported.result
1  CN1CCN(c2cc(-c3ccncc3)c(-c3ccc4cccc(F)c4c3)nn2)CC1  CK-1δ (Homo sapiens (Human), UniProt P48730)             4.75

Prompt: Bench note: what pIC50 did CN1CCN(c2cc(-c3ccncc3)c(-c3cc(F)cc4ccccc34)nn2)CC1 show?
Completion: 3.92

Prompt: Okay, and CN1CCN(c2cc(-c3ccncc3)c(-c3cccc4[nH]ccc34)nn2)CC1 ?
Completion: 5.21

###

target: UniProt P48730; assay: Kinase assay, concentration dependent inhibition of CK-1δ; settings: read-out: Ck1δ IC50
pIC50: −log10 of the molar value.
recorded_metric: pIC50

> print(dat)
                                   molecule  reported.result
1  CN(C)c1cc(-c2ccncc2)c(-c2ccc(F)c3ccccc23)nn1 [17 (MW-078)]           < 5.00
2  c1ccc2c(-c3nnc(NC4CC4)cc3-c3ccncc3)cccc2c1 [13 (MW-107)]           < 5.00
3  CN1CCN(c2cc(-c3ccncc3F)c(-c3cccc4ccccc34)nn2)CC1 [14 (MW-109)]           < 5.00

Prompt: Bench note: what pIC50 did c1ccc2c(-c3nnc(C4CC4)cc3-c3ccncc3)cccc2c1 [7 (MW-077)] show?
Completion: < 5.00

Prompt: Okay, and CN(C)c1cnc(-c2cccc3ccccc23)c(-c2ccncc2)n1 [44 (MW-064)] ?
Completion: < 5.00

###

Property: Ki; scope: individual molecules
target: human p38α MAPK (Homo sapiens (Human))
Your answer should be a plain number; it is taken to be in nM.

In the examples that follow, each entry is paired with its recorded Ki.
> print(dat)
                                 smiles.str  recorded.metric  units.symbol  reported.result
1  CN1CCN(c2cc(-c3ccncc3)c(-c3cccc4ccccc34)nn2)CC1               Ki            nM               98
2  c1ccc2c(-c3nnc(NC4CC4)cc3-c3ccncc3)cccc2c1               Ki            nM               91
3  c1ccc2cc(-c3nnc(C4CC4)cc3-c3ccncc3)ccc2c1               Ki            nM              127
4    CNc1cc(-c2ccncc2)c(-c2ccc3ccccc3c2)nn1               Ki            nM              100
5  CN(C)c1cnc(-c2cccc3ccccc23)c(-c2ccncc2)n1               Ki            nM              343
6    CNc1cc(-c2ccncc2)c(-c2cccc3ccccc23)nn1               Ki            nM              276

Prompt: Bench note: what Ki did Fc1cnccc1-c1cc(C2CC2)nnc1-c1ccc2ccccc2c1 show?
Completion: 86

Prompt: Okay, and c1ccc2c(-c3nnc(C4CC4)cc3-c3ccncc3)cccc2c1 ?
Completion: 186

###

Property: pIC50; scope: individual compounds
molecular target: CK-1δ (Homo sapiens (Human)); assay: Kinase assay, concentration dependent inhibition of CK-1δ; conditions: read-out: Ck1δ IC50
// scale note: pIC50 = -log10(conc_M); give the bare number

> print(dat)
                                 smiles.str         target.or.test.system  recorded.metric  reported.result
1  CN(C)c1cc(-c2ccncc2)c(-c2ccc3[nH]ccc3c2)nn1  CK-1δ (Homo sapiens (Human))            pIC50             5.37
2  c1cc(-c2nnc(N3CCNCC3)cc2-c2ccncc2)c2cc[nH]c2c1  CK-1δ (Homo sapiens (Human))            pIC50             5.58

// below: pIC50 requested for another compound
Prompt: Bench note: what pIC50 did CN1CCN(c2cc(-c3ccncc3F)c(-c3ccc4ccccc4c3)nn2)CC1 show?
Completion: 5.34

###

molecular target: CK-1δ (Homo sapiens (Human)); assay: Kinase assay, concentration dependent inhibition of CK-1δ; settings: read-out: Ck1δ IC50
recorded_metric: IC50

In the examples that follow, each entry is paired with its recorded IC50.
> print(dat)
                                 smiles.str  reported.result
1    CNc1cc(-c2ccncc2)c(-c2cccc3ccccc23)nn1          > 10 µM
2  CN1CCN(c2cc(-c3ccncc3)c(-c3cccc4ccccc34)nn2)CC1          > 10 µM
3    CNc1cc(-c2ccncc2)c(-c2ccc3ccccc3c2)nn1          4.98 µM

// below: IC50 requested for another compound
Prompt: Kindly state the measured IC50 obtained for c1ccc2cc(-c3nnc(C4CC4)cc3-c3ccncc3)ccc2c1 with CK-1δ (Homo sapiens (Human)).
Completion: > 10 µM

###

target: human p38α MAPK (Homo sapiens (Human), UniProt Q16539)
Sequence (Q16539 whole entry): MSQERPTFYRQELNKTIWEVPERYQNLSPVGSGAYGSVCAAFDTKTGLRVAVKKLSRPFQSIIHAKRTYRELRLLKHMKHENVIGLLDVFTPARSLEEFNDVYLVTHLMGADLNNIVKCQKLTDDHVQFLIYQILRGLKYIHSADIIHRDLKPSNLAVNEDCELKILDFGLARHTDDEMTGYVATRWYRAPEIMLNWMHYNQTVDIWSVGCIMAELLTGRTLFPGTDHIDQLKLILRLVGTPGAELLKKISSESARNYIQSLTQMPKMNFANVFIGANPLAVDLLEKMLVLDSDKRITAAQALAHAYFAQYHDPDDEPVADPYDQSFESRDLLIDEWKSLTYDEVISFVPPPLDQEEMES
Property: IC50; scope: individual compounds

In the examples that follow, each entry is paired with its recorded IC50.
> print(dat)
                                 smiles.str  recorded.metric  reported.result
1  c1ccc2cc(-c3nnc(C4CC4)cc3-c3ccncc3)ccc2c1             IC50           412 nM
2  CC(C)Nc1cc(-c2ccncc2)c(-c2ccc3ccccc3c2)nn1             IC50           130 nM
3  c1cc(-c2nnc(N3CCNCC3)cc2-c2ccncc2)c2cc[nH]c2c1             IC50           753 nM
4  c1ccc2c(-c3nnc(NC4CC4)cc3-c3ccncc3)cccc2c1             IC50           264 nM
5  CCN(CC)c1cc(-c2ccncc2)c(-c2cccc3ccccc23)nn1             IC50           162 nM

Prompt: Bench note: what IC50 did c1ccc2cc(-c3nnc(N4CCOCC4)cc3-c3ccncc3)ccc2c1 show?
Completion: 481 nM

Prompt: Okay, and CN1CCN(c2cc(-c3ccncc3)c(-c3ccc4cccc(F)c4c3)nn2)CC1 ?
Completion: 735 nM

Prompt: Okay, and CN(C)c1cc(-c2ccncc2)c(-c2cccc3cnccc23)nn1 ?
Completion: > 3200 nM

Prompt: Okay, and CC(C)Nc1cc(-c2ccncc2)c(-c2cccc3ccccc23)nn1 ?
Completion: 162 nM
